Reported IC50 is given for each of the following compounds.
target or system: PE-labeled human PD-L1-Ig binding to Jurkat cell line over-expressing human PD-1 (Jurkat-PD-1) (Homo sapiens, UniProt Q15116)
Construct: expressed in transfected cells; host or cells: Jurkat
Sequence (Q15116 25-288): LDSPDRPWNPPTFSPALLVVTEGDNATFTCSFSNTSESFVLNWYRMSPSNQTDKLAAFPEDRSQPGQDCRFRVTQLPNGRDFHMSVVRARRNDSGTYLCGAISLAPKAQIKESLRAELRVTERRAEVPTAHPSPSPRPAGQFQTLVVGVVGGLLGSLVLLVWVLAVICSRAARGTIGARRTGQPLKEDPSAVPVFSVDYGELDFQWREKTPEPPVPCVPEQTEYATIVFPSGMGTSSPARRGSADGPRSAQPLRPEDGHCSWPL
run description: Jurkat-PD-1 Cell Binding High-Content Screening Assay (CBA): Method 1
details: Jurkat-hPD-1 cells, PE-labeled PD-L1-Ig 20 nM final; read-out: Jurkat HPDL1 PD1 IC50 (uM) (Method 1)
Bridge positions count the residues as written; N and C are the ends. Square brackets hold non-standard residues; d marks the D form. Peptide text beside a SMILES is read from it. * marks the point of attachment. Phe(4-CONH2) = NC(=O)c1ccc(C[C@H](N)C(=O)O)cc1; Bip = N[C@@H](Cc1ccc(-c2ccccc2)cc1)C(=O)O; Phe(3-OMe) = COc1cccc(C[C@H](N)C(=O)O)c1; 3Pal = N[C@@H](Cc1cccnc1)C(=O)O; 4Pal = N[C@@H](Cc1ccncc1)C(=O)O; Cha = N[C@@H](CC1CCCCC1)C(=O)O; Cit = NC(=O)NCCC[C@H](N)C(=O)O; Carboxymethyl = O=C(O)C*; NMeA = CN[C@@H](C)C(=O)O; Orn = NCCC[C@H](N)C(=O)O; Dab = NCC[C@H](N)C(=O)O
Field format: number, assumed µM, no unit text.

Look over these answered cases.
compound: CC(C)C[C@@H]1NC(=O)[C@H](Cc2c[nH]c3ccccc23)NC(=O)[C@H](CC(=O)O)NC(=O)[C@H](Cc2ccc(O)cc2)NC(=O)[C@H](Cc2ccccc2)NC(=O)CSC[C@@H](C(=O)NCC(N)=O)NC(=O)[C@H](CO)NC(=O)[C@H](C(C)C)NC(=O)[C@H](CC(C)C)NC(=O)[C@H](CC(N)=O)NC(=O)[C@@H](Cc2cnc[nH]2)NC(=O)[C@H](C)N(C)C(=O)[C@H](C(C)C)NC(=O)[C@H](Cc2ccc(-c3ccccc3)cc2)NC1=O [Compound 1797] ({CH2CO}-FYDWL[Bip]V[NMeA][dH]NLVSCG-NH2; thioether N-14)
IC50 / µM: 0.16
//
compound: CC(C)C[C@@H]1NC(=O)[C@H](Cc2c[nH]c3ccccc23)NC(=O)[C@H](CC(=O)O)NC(=O)[C@H](Cc2ccc(C(N)=O)cc2)NC(=O)[C@H](Cc2ccccc2)NC(=O)CSC[C@@H](C(=O)N[C@@H](C)C(N)=O)NC(=O)[C@H](CO)NC(=O)[C@H](C(C)C)NC(=O)[C@H](CC(C)C)NC(=O)[C@H](CC(N)=O)NC(=O)[C@@H](C)NC(=O)[C@H](C)N(C)C(=O)[C@H](C(C)C)NC(=O)[C@H](Cc2ccc(-c3ccccc3)cc2)NC1=O [Compound 1740] ({CH2CO}-F[Phe(4-CONH2)]DWL[Bip]V[NMeA][dA]NLVSCA-NH2; thioether N-14)
IC50 / µM: 0.02
//
compound: COc1cccc(C[C@@H]2NC(=O)[C@H](Cc3cccnc3)NC(=O)CSC[C@@H](C(=O)NCC(N)=O)NC(=O)[C@H](CO)NC(=O)[C@H](C(C)C)NC(=O)[C@H](CC(C)C)NC(=O)[C@H](CC(N)=O)NC(=O)[C@@H](CC(C)C)NC(=O)[C@H](C)N(C)C(=O)[C@H](C(C)C)NC(=O)[C@H](Cc3ccc(-c4ccccc4)cc3)NC(=O)[C@H](CC(C)C)NC(=O)[C@H](Cc3c[nH]c4ccccc34)NC(=O)[C@H](CC(=O)O)NC2=O)c1 [Compound 1524] ({CH2CO}-[3Pal][Phe(3-OMe)]DWL[Bip]V[NMeA][dL]NLVSCG-NH2; thioether N-14)
IC50 / µM: 0.01
//
compound: CC(C)C[C@H]1NC(=O)[C@H](C)N(C)C(=O)[C@H](C(C)C)NC(=O)[C@H](Cc2ccc(-c3ccccc3)cc2)NC(=O)[C@H](C(C)C)NC(=O)[C@H](Cc2c[nH]c3ccccc23)NC(=O)[C@H](CC(=O)O)NC(=O)[C@H](Cc2ccncc2)NC(=O)[C@H](Cc2ccc(OCC(=O)O)cc2)NC(=O)CSC[C@@H](C(N)=O)NC(=O)[C@H](CO)NC(=O)[C@H](C(C)C)NC(=O)[C@H](CC2CCCCC2)NC(=O)[C@H](CCCCN)NC1=O [Compound 2245] ({CH2CO}-Y(Carboxymethyl)[4Pal]DWV[Bip]V[NMeA][dL]K[Cha]VSC-NH2; thioether N-14)
IC50 / µM: 0.01
//
compound: CC[C@H](C)[C@@H]1NC(=O)[C@H](Cc2ccc(-c3ccccc3)cc2)NC(=O)[C@H](C(C)C)NC(=O)[C@H](Cc2c[nH]c3ccccc23)NC(=O)[C@H](CC(=O)O)NC(=O)[C@H](Cc2ccc(O)cc2)NC(=O)[C@H](CC(C)C)NC(=O)CSC[C@@H](C(=O)N[C@@H](C)C(N)=O)NC(=O)[C@H]([C@@H](C)O)NC(=O)[C@H](C(C)C)NC(=O)[C@H](CC(C)C)NC(=O)[C@H](CCN)NC(=O)[C@@H](CC(C)C)NC(=O)[C@H](C)N(C)C1=O [Compound 1392] ({CH2CO}-LYDWV[Bip]I[NMeA][dL][Dab]LVTCA-NH2; thioether N-14)
IC50 / µM: 0.04
//
compound: CC(C)C[C@@H]1NC(=O)[C@H](Cc2c[nH]c3ccccc23)NC(=O)[C@H](CC(=O)O)NC(=O)[C@H](Cc2ccc(O)cc2)NC(=O)[C@H](Cc2ccccc2)NC(=O)CSC[C@@H](C(=O)NCC(N)=O)NC(=O)[C@H](CO)NC(=O)[C@H](C(C)C)NC(=O)[C@H](CC(C)C)NC(=O)[C@H](CC(N)=O)NC(=O)[C@H](CCCNC(N)=O)NC(=O)[C@H](C)N(C)C(=O)[C@H](C(C)C)NC(=O)[C@H](Cc2ccc(-c3ccccc3)cc2)NC1=O [Compound 1812] ({CH2CO}-FYDWL[Bip]V[NMeA][Cit]NLVSCG-NH2; thioether N-14)
IC50 / µM: 0.28

Query IC50 for CC(C)C[C@@H]1NC(=O)[C@H](CCCN)NC(=O)[C@@H](CC(C)C)NC(=O)[C@H](C)N(C)C(=O)[C@H](CCCN)NC(=O)[C@H](Cc2ccc(-c3ccccc3)cc2)NC(=O)[C@H](C(C)C)NC(=O)[C@H](Cc2c[nH]c3ccccc23)NC(=O)[C@H](CC(=O)O)NC(=O)[C@H](Cc2ccc(O)cc2)NC(=O)[C@H](CC(N)=O)NC(=O)CSC[C@@H](C(=O)N[C@@H](C)C(N)=O)NC(=O)[C@H]([C@@H](C)O)NC(=O)[C@H](C(C)C)NC1=O [Compound 1241] ({CH2CO}-NYDWV[Bip][Orn][NMeA][dL][Orn]LVTCA-NH2; thioether N-14)
0.02

Query IC50 for CC(C)C[C@@H]1NC(=O)[C@H](CCN)NC(=O)[C@@H](CC(C)C)NC(=O)[C@H](C)N(C)C(=O)[C@H](CCCNC(=N)N)NC(=O)[C@H](Cc2ccc(-c3ccccc3)cc2)NC(=O)[C@H](C(C)C)NC(=O)[C@H](Cc2c[nH]c3ccccc23)NC(=O)[C@H](CC(=O)O)NC(=O)[C@H](Cc2ccc(O)cc2)NC(=O)[C@H](CCCNC(=N)N)NC(=O)CSC[C@@H](C(=O)N[C@@H](C)C(N)=O)NC(=O)[C@H]([C@@H](C)O)NC(=O)[C@H](C(C)C)NC1=O [Compound 1343] ({CH2CO}-RYDWV[Bip]R[NMeA][dL][Dab]LVTCA-NH2; thioether N-14)
0.04
